test system: MALME-3M melanoma; assay: NCI-60 one-dose screen, 48 h; details: 10 µM unless noted
The panel holds about 83,000 compounds, 20% with a hit somewhere; the sample as a whole holds those more often. Active and inactive are the calls of the source. The calls were made as follows: active = growth percent below 10; inactive = the rest.
Assign a class; possible classes are true = active, false = inactive

How was Cc1ccc(NC(=S)NNC(=S)NNc2ccccc2)cc1C classified in this test?
false

And what about the compound N=C(N)c1ccc(-c2ccc(-c3ccc(F)cc3)o2)o1 ?
false

And what about the compound COc1ccccc1Nc1nc2c(s1)C1=CC[C@H]3[C@@H]4CC[C@H]([C@H](C)CCCC(C)C)[C@@]4(C)CC[C@@H]3[C@@]1(C)CC2 ?
false

And what about the compound CCOC(=O)c1c(C)c2c(n1C)CSc1cc(C(=O)c3ccccc3)c(=O)[nH]c1-2 ?
false

And what about the compound COc1cc(N2C(=O)[C@H](O)C2c2ccc(SC)cc2)cc(OC)c1OC (stereo partly drawn) ?
false

And what about the compound N#CC1CCc2c(c(-c3cn[nH]c3C(F)(F)F)nc3c(F)cc4[nH]ncc4c23)C1 (stereo not drawn) ?
false

And what about the compound CC1=C(C(=O)OC(C)C)C(c2ccc3c(c2)OCO3)NC(=S)N1 (stereo not drawn) ?
false

And what about the compound CCN(CC)C(=S)SC(SC(=S)N(CC)CC)C(=O)c1nnn(-c2ccc([N+](=O)[O-])cc2)c1C ?
false

And what about the compound CC(=O)c1cc(O)c2ccccc2c1O ?
false

And what about the compound O=S(=O)(NCCCNc1nccc(-c2c(-c3ccc(F)c(O)c3)nc3occn23)n1)c1ccccc1 ?
true

And what about the compound N#C/C(=C\c1ccc(Br)cc1)n1nnc2ccc(F)cc21 ?
true

And what about the compound CC(C)CCC[C@@H](C)[C@H]1CC[C@H]2[C@@H]3CC=C4C[C@@H](C(C(=O)O)C(=O)O)CC[C@]4(C)[C@H]3CC[C@]12C ?
true

And what about the compound C=C(C)[C@@H]1CC[C@]2(C(=O)NCCNCCN)CC[C@]3(C)[C@H](CC[C@@H]4[C@@]5(C)C/C(=C/c6ccncc6)C(=O)C(C)(C)[C@@H]5CC[C@]43C)[C@@H]12 ?
false

And what about the compound Cc1ccc2c(n1)C(=O)c1[nH]c3ccccc3c1C2=O ?
true

And what about the compound CCc1ccc(C(=O)/C=C/C23c4ccccc4C(c4ccccc42)C2C(=O)NC(=O)C23)cc1 (stereo not drawn) ?
true

And what about the compound CCC(C)N(c1ccc(Cl)cc1)c1nc(-c2ccc(Br)cc2)cs1 (stereo not drawn) ?
false

And what about the compound CC(C)=CCC[C@](C)(O)[C@H]1CC[C@]2(C)[C@@H]1CC[C@@H]1[C@@]3(C)Cc4nccnc4C(C)(C)[C@@H]3CC[C@]12C ?
false

And what about the compound COc1ccc(CC(C#N)c2cc3ccccc3[nH]2)cc1 (stereo not drawn) ?
false

And what about the compound CC(C)N1CN2C(=S)NC3C2N(C1)C(=S)N3C (stereo not drawn) ?
false

And what about the compound Cn1ccnc1C(=O)C(=O)Nc1ccc(CC(=O)Nc2ccccc2)cc1 ?
false

And what about the compound N#CC1C=CN(CC(N)=O)c2ccc3cccnc3c21 (stereo not drawn) ?
false

And what about the compound O=C1c2cccnc2C(=O)c2c1c(C(=O)NCCn1ccnc1)c1ccccn21 ?
true

And what about the compound Cc1nc(N2CCOCC2)sc1S(N)(=O)=O ?
false

And what about the compound O=C1/C(=C/c2cccs2)SC(=S)N1CCCN1CCOCC1 ?
false

And what about the compound CC1(C)CC[C@]2(c3nnc(-c4ccncc4)o3)CC[C@H]3C(=CC[C@H]4[C@@]3(C)CC[C@H]3C(C)(C)C(=O)CC[C@]43C)[C@@H]2C1 ?
false

And what about the compound Cc1nc2ncnc(Cl)c2[nH]1 ?
false

And what about the compound COc1cc(-c2nc(SCCC(C)C)nc(Nc3ccccc3Cl)c2C#N)cc(OC)c1OC ?
false

And what about the compound CC1(C)c2[nH]c3ccccc3c2C[C@]2(C)[C@H]3CC=C4[C@@H]5C[C@@](C)(C(N)=O)CC[C@]5(C)CC[C@@]4(C)[C@]3(C)CC[C@@H]12 ?
false
